Known ka of a selection of molecules
- System name: T1, htau40 (Homo sapiens, UniProt P10636)
- T1 construct: Full length tau (hT40)
- T1 sequence (P10636 1-441 isoform P10636-8): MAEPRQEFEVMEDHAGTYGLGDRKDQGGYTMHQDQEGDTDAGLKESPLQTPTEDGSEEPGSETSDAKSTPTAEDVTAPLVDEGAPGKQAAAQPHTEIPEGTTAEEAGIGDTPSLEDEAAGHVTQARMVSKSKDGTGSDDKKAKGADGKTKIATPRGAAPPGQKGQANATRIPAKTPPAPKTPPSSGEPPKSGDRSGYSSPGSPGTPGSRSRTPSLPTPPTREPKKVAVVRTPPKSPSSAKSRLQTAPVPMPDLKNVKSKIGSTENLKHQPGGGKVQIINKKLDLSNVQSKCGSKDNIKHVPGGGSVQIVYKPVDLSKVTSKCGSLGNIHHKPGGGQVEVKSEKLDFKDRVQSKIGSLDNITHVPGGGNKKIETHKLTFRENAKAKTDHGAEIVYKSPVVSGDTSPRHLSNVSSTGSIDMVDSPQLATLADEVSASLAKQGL
- Protocol text: Biacore X100 SPR kinetics of anti-tau mAbs on immobilised htau40
- Assay type: binding
- Test settings: Table 27; mAb format, immobilised htau40
Return type: number; implicit unit M⁻¹ s⁻¹.

Molecule | Unit spec | ka
CE2: anti-tau core clone, Table 10; SEQ ID NO: 366 (protein, CE2/E1B8 amino acid sequence) scFv: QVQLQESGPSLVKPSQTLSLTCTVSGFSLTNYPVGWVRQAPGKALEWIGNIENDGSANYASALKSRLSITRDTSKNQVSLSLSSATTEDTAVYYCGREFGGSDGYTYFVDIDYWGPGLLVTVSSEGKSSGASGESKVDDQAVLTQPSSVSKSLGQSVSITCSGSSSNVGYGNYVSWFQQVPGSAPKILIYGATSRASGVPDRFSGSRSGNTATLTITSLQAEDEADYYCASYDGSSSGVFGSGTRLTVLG | M⁻¹ s⁻¹ | 457900

// below: ka requested for another molecule
Record summary for CB7: human-specific N-terminal anti-tau clone, Table 10; SEQ ID NO: 364 (protein, CB7 amino acid sequence) scFv: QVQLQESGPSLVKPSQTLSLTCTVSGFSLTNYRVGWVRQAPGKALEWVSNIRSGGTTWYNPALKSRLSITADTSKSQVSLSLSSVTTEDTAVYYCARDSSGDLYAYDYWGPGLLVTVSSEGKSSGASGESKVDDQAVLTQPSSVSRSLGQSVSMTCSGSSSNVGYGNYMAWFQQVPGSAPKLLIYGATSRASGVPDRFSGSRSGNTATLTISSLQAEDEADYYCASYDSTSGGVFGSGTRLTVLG : reported ka = 2.568e+06
